# test_target: Macrophage-stimulating protein receptor (Homo sapiens) (UniProt Q04912);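 further: reported values are the mean percent inhibition of RON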
# Sequence (Q04912 25-304 limits assumed): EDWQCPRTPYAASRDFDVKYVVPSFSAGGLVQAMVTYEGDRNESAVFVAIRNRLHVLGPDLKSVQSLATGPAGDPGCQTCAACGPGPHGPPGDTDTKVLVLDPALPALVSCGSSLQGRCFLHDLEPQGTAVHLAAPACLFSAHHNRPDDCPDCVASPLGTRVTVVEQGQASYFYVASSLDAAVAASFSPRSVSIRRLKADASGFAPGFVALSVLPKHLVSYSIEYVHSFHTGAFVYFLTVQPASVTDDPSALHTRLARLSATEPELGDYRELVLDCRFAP
# Sequence (Q04912 310-1400 limits assumed): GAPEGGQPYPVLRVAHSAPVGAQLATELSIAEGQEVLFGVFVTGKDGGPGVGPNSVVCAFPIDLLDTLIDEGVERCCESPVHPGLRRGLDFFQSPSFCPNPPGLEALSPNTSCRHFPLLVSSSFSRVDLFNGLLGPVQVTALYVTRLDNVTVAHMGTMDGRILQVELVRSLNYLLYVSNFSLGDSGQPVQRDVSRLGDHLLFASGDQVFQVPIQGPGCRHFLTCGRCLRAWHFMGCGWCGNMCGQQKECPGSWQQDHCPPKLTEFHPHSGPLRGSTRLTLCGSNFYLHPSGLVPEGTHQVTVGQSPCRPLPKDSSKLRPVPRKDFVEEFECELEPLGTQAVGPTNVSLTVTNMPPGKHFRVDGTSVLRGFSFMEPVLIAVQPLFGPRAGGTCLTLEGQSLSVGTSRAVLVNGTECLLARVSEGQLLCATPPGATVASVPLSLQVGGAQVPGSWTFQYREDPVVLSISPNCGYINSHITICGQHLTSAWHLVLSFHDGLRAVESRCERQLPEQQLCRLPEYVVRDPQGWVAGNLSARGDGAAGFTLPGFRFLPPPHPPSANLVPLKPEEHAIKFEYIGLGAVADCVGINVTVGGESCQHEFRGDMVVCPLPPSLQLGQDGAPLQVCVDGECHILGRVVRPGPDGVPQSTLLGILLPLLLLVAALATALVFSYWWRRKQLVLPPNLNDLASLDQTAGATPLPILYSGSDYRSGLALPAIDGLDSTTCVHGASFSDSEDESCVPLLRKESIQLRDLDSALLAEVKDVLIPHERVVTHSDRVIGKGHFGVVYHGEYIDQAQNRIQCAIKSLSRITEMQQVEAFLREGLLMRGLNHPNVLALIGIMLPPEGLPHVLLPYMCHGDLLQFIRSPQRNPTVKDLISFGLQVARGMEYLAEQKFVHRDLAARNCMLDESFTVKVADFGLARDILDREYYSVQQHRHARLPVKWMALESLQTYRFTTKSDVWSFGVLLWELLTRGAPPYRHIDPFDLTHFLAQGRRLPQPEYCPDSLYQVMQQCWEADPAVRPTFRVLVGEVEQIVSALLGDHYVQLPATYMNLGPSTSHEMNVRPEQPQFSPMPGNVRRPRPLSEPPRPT
# assay_conditions: at 0.1 µM
Answer each item with its documented inhibition.
Just the number in %, nothing appended.

### Prompt Given `CNC(=O)c1cncc(/C=C/c2ccccc2Cl)c1` , state its recorded inhibition.
### Response 2.22

### Prompt Fill blank: measured inhibition of the compound `Fc1cccc(COc2ccc(Nc3ncnc4sc(-c5ccco5)cc34)cc2Cl)c1` is ____.
### Response -0.84

### Prompt // lookup inhibition for `CCCN1CCC(c2ccc(Nc3nc(Nc4cc(F)ccc4C(N)=O)c4cc[nH]c4n3)c(OC)c2)CC1`
### Response 8.19

### Prompt Fill in the blank: the reported inhibition of `Clc1ccc(-c2nn3ncccc3c2-c2ccnc(Nc3ccccc3)n2)cc1` is ____.
### Response -2.2

### Prompt # get_value(readout='inhibition', item= `COc1ccc(-c2cc3c(N)ncnc3o2)cc1` )
### Response -4.17

### Prompt Recorded inhibition for `CCN(CC)S(=O)(=O)c1ccc(OC)c(Nc2ncc(-c3ccccc3)o2)c1` , please?
### Response 4

### Prompt Query (compound): `CCn1c(-c2nonc2N)nc2c(C#CC(C)(C)O)nc(OC[C@H](N)c3ccccc3)cc21` ; field requested: inhibition
### Response 4.34

### Prompt Request the reported inhibition associated with `CNC(=O)c1cc(-c2ccc(F)cc2)cc(-c2ccc(S(=O)(=O)N3CCCC3)cc2)c1N`
### Response 1.89

### Prompt Recorded inhibition for `COc1ccc2[nH]c3c4[nH]c5ccc(OC)cc5c4c4c(c3c2c1)C(=O)NC4=O` , please?
### Response 6.28

### Prompt Look up inhibition: `CCn1c(-c2nonc2N)nc2cnc(Oc3cccc(NC(=O)c4ccc(N(C)C)cc4)c3)cc21`
### Response 1.95
